tgt: human recombinant mTOR kinase (Homo sapiens, UniProt P42345)
Construct: a purified recombinant mTOR fragment (amino acids 1360-2549, CBA104-1KIT from Calbiochem); purchased Calbiochem CBA104-1KIT
Sequence (P42345 1360-2549): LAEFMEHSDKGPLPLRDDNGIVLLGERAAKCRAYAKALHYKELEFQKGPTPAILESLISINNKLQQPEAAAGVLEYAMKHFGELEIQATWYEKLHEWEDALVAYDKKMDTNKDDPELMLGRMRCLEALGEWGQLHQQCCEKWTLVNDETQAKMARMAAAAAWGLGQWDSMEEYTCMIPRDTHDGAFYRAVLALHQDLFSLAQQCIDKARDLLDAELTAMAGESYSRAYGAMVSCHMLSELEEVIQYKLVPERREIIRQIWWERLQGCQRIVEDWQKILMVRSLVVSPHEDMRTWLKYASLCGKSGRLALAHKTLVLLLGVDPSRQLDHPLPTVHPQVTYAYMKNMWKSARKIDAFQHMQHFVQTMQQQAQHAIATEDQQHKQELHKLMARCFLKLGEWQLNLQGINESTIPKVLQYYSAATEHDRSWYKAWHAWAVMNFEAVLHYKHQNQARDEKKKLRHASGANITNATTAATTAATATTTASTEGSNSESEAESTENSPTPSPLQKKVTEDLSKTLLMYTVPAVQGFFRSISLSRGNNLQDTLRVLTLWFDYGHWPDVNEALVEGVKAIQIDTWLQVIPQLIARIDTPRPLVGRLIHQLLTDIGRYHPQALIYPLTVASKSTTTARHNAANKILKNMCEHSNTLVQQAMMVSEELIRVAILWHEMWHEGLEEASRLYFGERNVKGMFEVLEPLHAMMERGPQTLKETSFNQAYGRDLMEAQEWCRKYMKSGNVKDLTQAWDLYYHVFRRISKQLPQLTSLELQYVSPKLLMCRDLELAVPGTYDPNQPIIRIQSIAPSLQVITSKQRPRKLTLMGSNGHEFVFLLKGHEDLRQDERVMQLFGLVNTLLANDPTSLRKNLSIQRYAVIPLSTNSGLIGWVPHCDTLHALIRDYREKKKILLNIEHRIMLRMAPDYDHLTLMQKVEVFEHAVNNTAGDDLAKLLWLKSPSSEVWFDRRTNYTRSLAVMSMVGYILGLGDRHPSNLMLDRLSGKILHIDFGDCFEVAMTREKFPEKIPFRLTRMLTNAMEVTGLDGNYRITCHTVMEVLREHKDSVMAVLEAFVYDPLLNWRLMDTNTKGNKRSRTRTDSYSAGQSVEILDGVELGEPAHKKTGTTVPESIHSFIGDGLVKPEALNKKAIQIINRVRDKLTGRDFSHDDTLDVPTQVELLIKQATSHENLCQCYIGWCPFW
protocol-summary: In vitro mTOR kinase assay (K-LISA ELISA, p70S6K-GST substrate)
Type: biochemical
conditions: 10 μM; triplicate measurements
Measured inhibition at 10 µM accompanies every entry in the list below.
measure-name: inhibition at 10 µM

mol | experimental-value
O=[N+]([O-])c1c(Nc2ccc3c(c2)OCO3)cc(N2CCOCC2)c2nonc12 | 38%
Nc1nc2ncc(-c3n[nH]cc3[N+](=O)[O-])cn2n1 | 30%
c1coc(-c2nnc3sc(-c4cnccn4)nn23)c1 | 50%
COc1cccc(-c2nn3c(N)c(C#N)c(-c4cccnc4)nc3c2C)c1 | 38%
COc1cc(/C=C2/SC(=S)N(C)C2=O)ccc1Oc1nc(N2CCOCC2)nc(N2CCOCC2)n1 | 22%

* * *

Quick list: inhibition at 10 µM per entry.
tgt: human recombinant mTOR kinase (Homo sapiens, UniProt P42345)
Construct: a purified recombinant mTOR fragment (amino acids 1360-2549, CBA104-1KIT from Calbiochem); purchased Calbiochem CBA104-1KIT
protocol-summary: In vitro mTOR kinase assay (K-LISA ELISA, p70S6K-GST substrate)
Assay type: biochemical
conditions: 10 μM; triplicate measurements
measure-name: inhibition at 10 µM (%)

compound | tgt | experimental-value
Clc1ccc(-c2nnc3sc(-c4cnccn4)nn23)cc1 [Compound 20] | human recombinant mTOR kinase (Homo sapiens, UniProt P42345) | 55
O=C(CCl)Nc1ccc(/C=C2\CCCn3c2nc2cc(NC(=O)CCl)ccc2c3=O)cc1 [Compound 36] | human recombinant mTOR kinase (Homo sapiens, UniProt P42345) | 31
COC(=O)c1sc2nc(-c3ccccc3)nc(N3CCOCC3)c2c1C [Compound 25] | human recombinant mTOR kinase (Homo sapiens, UniProt P42345) | 36
NC(=O)c1nnn(Cc2cc(Cl)c(C(=O)c3ccc(Cl)cc3)c(Cl)c2)c1N [Compound 33] | human recombinant mTOR kinase (Homo sapiens, UniProt P42345) | 21

* * *

tgt: human recombinant mTOR kinase (Homo sapiens, UniProt P42345)
Construct: a purified recombinant mTOR fragment (amino acids 1360-2549, CBA104-1KIT from Calbiochem); purchased Calbiochem CBA104-1KIT
protocol-summary: In vitro mTOR kinase assay (K-LISA ELISA, p70S6K-GST substrate)
Assay type: biochemical
conditions: 10 μM; triplicate measurements

mol | tgt | inhibition at 10 µM (%)
Cc1cc(=O)n2nc(N)c(/N=N/c3ccccc3)c2[nH]1 | human recombinant mTOR kinase (Homo sapiens, UniProt P42345) | 23
Nc1nn2c(nc(N)c3c(N)n[nH]c32)c1/N=N/c1ccccc1 | human recombinant mTOR kinase (Homo sapiens, UniProt P42345) | 61
CNc1cccc2c(NC(=S)NC(=O)c3cccc(C(=O)NC(C)=S)c3)cccc12 | human recombinant mTOR kinase (Homo sapiens, UniProt P42345) | 91
COc1c(-c2ccoc2)oc2ccc(C)cc2c1=O | human recombinant mTOR kinase (Homo sapiens, UniProt P42345) | 22
O=C(NC(=S)Nc1ccc2oc(-c3cccnc3)nc2c1)c1ccco1 | human recombinant mTOR kinase (Homo sapiens, UniProt P42345) | 33
